# assayName: bioavailability of bixin and norbixin, plasma analysis
# Assay type: in vivo, C57Bl/6 mice
# measurementParameters: C57Bl/6, mouse, po; Bixin ingestion (50 mg/kg), plasma, analyte as labelled; read-out: Tmax
quantityName: Tmax (min)
Provide only the numeric value, understood in min.

Recall and state the measured Tmax for COC(=O)/C=C/C(C)=C\C=C\C(C)=C\C=C\C=C(C)\C=C\C=C(C)\C=C\C(=O)O .
30

----------
# assayName: bioavailability of bixin and norbixin, plasma analysis
# Type: in vivo, C57Bl/6 mice
# measurementParameters: C57Bl/6, mouse, po; Norbixin ingestion (50 mg/kg), plasma
quantityName: AUC (ng·h/mL)
Provide only the numeric value, understood in ng·h/mL.

Recall and state the measured AUC for CC(=C/C=C/C(C)=C/C=C/C=C(C)/C=C/C=C(C)/C=C/C(=O)O)/C=C/C(=O)O [norbixin] .
41600

----------
AUC(0-t) reference
# assayName: bioavailability of bixin and norbixin, plasma analysis
# Type: in vivo, C57Bl/6 mice
# measurementParameters: C57Bl/6, mouse, po; Bixin ingestion (50 mg/kg), plasma, analyte as labelled; read-out: AUC 0-24 h
Provide only the numeric value, understood in ng·h/mL.

chemicalString: CC(=C/C=C/C(C)=C/C=C/C=C(C)/C=C/C=C(C)/C=C/C(=O)O)/C=C/C(=O)O
unitSymbol: ng·h/mL
AUC(0-t): 1340

Recall and state the measured AUC(0-t) for COC(=O)/C=C/C(C)=C\C=C\C(C)=C\C=C\C=C(C)\C=C\C=C(C)\C=C\C(=O)O .
1670

----------
# assayName: bioavailability of bixin and norbixin, plasma analysis
# Assay type: in vivo, C57Bl/6 mice
# measurementParameters: C57Bl/6, mouse, plasma; intraperitoneal injection (5 mg/kg) versus oral administration (50 mg/kg); FIG. 3b
quantityName: bioavailability (%)
Provide only the numeric value, understood in %.

Recall and state the measured bioavailability for CC(=C/C=C/C(C)=C/C=C/C=C(C)/C=C/C=C(C)/C=C/C(=O)O)/C=C/C(=O)O [norbixin] .
55
